Parameter composite z-score: see the listing below.
Test: probe aLefty1 binding on compound microarray – biochemical, small-molecule microarray, 635/667 nm fluorescence, primary screen (AID 1153);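 also: score merges spot fluorescence with signal-to-noise ratio from the scanned slide images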
Conditions: higher = more signal

compound | composite z-score
C=CCC(OC(C)=O)[C@@H]1[C@@H](N(Cc2cc3ccccc3o2)C(=O)c2cccc3ccccc23)c2cc(OCCCO)ccc2N1C(=O)Cc1ccc(OC)cc1 (stereo partly drawn) | -0.195
C=CCC(OC(C)=O)[C@@H]1[C@@H](N(Cc2ccc(-c3ccccc3)cc2)C(=O)c2ccc(C)cc2)c2cc(OCCCO)ccc2N1C(=O)Cc1ccc(OC)cc1 (stereo partly drawn) | -0.0937
O=C1C[C@@](C(=O)O)(c2ccc([N+](=O)[O-])cc2)[C@@H](c2ccc(CO)cc2I)N1CC12CC3CC(CC(C3)C1)C2 | 0.271
COCCOC(=O)N1C(=O)[C@@]2(c3cc(C#CC4(O)CCCCCC4)ccc31)[C@H](c1ccc(O)cc1)N1[C@H](c3ccccc3)[C@H](c3ccccc3)OC(=O)[C@H]1[C@@H]2C(=O)N1CCc2cc(OC)c(OC)cc2C1 | -0.0099
COC(=O)[C@@]1(Cc2ccccc2)[C@H]2c3cc(C(=O)N(C)C)n(Cc4ccccc4)c3C[C@H]2CN1C(=O)c1ccccc1 | 0.177
COC(=O)c1c(CC[C@@H](CO)NC(=O)Nc2ncn[nH]2)oc(C(=O)Cc2ccccc2)c1C(=O)OC | 0.0751
CC(C)OC(=O)C1=CCC(c2cccc(Cl)c2)O1 (stereo not drawn) | -0.142
CN(C)CCCN1C(=O)[C@@]2(c3ccc([N+](=O)[O-])cc3)CC(=O)N(C3CCCCC3)[C@@H]2c2ccc(CO)cc21 | 0.412

----------
Test: hepatitis C replication reporter changes, two-sided – Huh7 cells, luciferase reporter, HCV replication inhibitor project, primary screen (AID 1109);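 also: huh7 hepatoma cells harbouring a luciferase neomycin HCV replicon reporter; luciferase luminescence as measure of HCV replicon replication; test concentration not given here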
Settings: Huh7 HCV replicon luciferase reporter, 48 h; higher = more signal

compound | z-score
C=CCN1Cc2ccccc2C[C@]2(N=C(c3ccc(OCCCO)cc3)O[C@@H]2c2ccccc2)C1=O | -2.51
C#C[C@H](O[Si](C#CCCCCCC)(C(C)C)C(C)C)c1ccccc1 | 0.242
C=CCOC(=O)[C@@H]1[C@H]2C(=O)O[C@H](c3ccccc3)[C@H](c3ccccc3)N2[C@H](c2ccc(OCCOC(=O)[C@H]3C[C@H]4C(=O)N[C@@H](Cc5ccccc5)C(=O)N4[C@H]3c3ccc(O)cc3)cc2)[C@@]12C(=O)Nc1ccc(I)cc12 | -2.78
COCCOC(=O)N1C(=O)[C@@]2(c3cc(C#CCC(C(=O)OC)C(=O)OC)ccc31)[C@H](c1ccccc1OCCO)N1[C@H](c3ccccc3)[C@H](c3ccccc3)OC(=O)[C@H]1[C@@H]2C(=O)Nc1nc2ccccc2s1 | -1.11
Cc1ccc(S[C@]2(C(=O)NCc3ccccc3)CC(=O)N(Cc3cc(C(F)(F)F)cc(C(F)(F)F)c3)[C@@H]2c2ccc(CO)cc2)cc1 | -0.763
CN1C(=O)C2C=CC(C(O)C(c3ccccc3)c3ccccc3)N(Nc3ccccc3)C2C1=O (stereo not given) | -1.13
CN(C)CCCCCCNC(=O)[C@@H]1C[C@@H]2C(=O)NCC(=O)N2[C@@H]1c1cccc(OCCO)c1 | -0.358
O=C1O[C@@H](c2ccccc2)[C@@H](c2ccccc2)N2[C@@H](c3ccc(O)cc3)[C@]3(C(=O)Nc4ccccc43)[C@@H](C(=O)NC[C@H](O)c3ccccc3)[C@H]12 | -0.427
CCOC(=O)C1=C[C@@H](C(C)(C)C)N(S(=O)(=O)c2ccc(C)cc2)[C@H]1c1ccc(Cl)c(Cl)c1 | -0.501
CN(C)CCCC[C@@H]1NC(=O)[C@@H]2C[C@H](C(=O)NCCCCCCN)[C@H](c3ccc(O)cc3)N2C1=O | -0.379
